target: C. rodentium EspA (Citrobacter rodentium ICC168 (parent of …, UniProt D2TKE3)); experiment: ELISA; dilution ELISA; purified antigen coated directly on Nunc Maxisorp wells, typically 1 μg/mL in PBS overnight at 4°C, blocked with 4% milk in PBS 0.1% Tween; thioredoxin/VHH/E-tag from 125 nM in 1:5 serial dilutions, 1 h 37°C; detected with HRP anti-E-tag; EC50 estimates (apparent affinity); Trace = EC50 >125 nM, poor but detectable; details: both partners purified
# reported EC50; entries follow
Supply the numeric figure in nM, leaving out any unit text.

[[record]]
binder = "JXF-C4 (VHH, also called αEspA-4; JXM-15 (vector name); not shown: thioredoxin, N-terminal, kept; E-tag, C-terminal, kept) VHH: SGGGLVQAGGSLRLSCVAYGRTANTFKEYAMGWFRHNPGEDHEFVGGISQNGDEAYFDDSVKGRFTPSRDNAKNTMYLQMNSLRPEDTAAYYCVAQRSSERLVGDMYSAMDSWGKGTLVTVST"
quantitativeresult = 0.7


// switching to the query binder
// EC50 value for JYB-H4 (VHH, also called αEspA-8; JYE-4 (vector name); not shown: thioredoxin, N-terminal, kept; E-tag, C-terminal, kept) VHH: SGGGLVQPGGSLRLSCAASGVTLEYYAIGWFRQVPGKEREGVSCISTSGAGTNYADSVKGRFTISKDNAKNTVYLQMNSLKPEDTAVYYCAARDFTEVPIGGCEWEYDYWGQGTQVTVSS : 0.5
